This collection of values is drawn from the supplement of paper PMC10567573.

B1: CDC25B (parent)
chain: KSPIAPCSLDKRVILIFHCEFSSE

variants of: B1; assay: protein stability index of a GFP-peptide fusion (GPS, HEK-293T) (PSI 1-6); higher = more stable; conditions: c terminus: a fixed tail appended;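 note: lentivirally expressed fusions sorted by FACS into six bins by GFP to DsRed ratio, PSI derived from sequencing read proportions per bin multiplied by bin number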
OBSERVED_PROPERTY: protein stability index
Write no unit; give the number alone.

C19D :: 2.34
P3N :: 2.73
C19W :: 2.31
F17T :: 1.8
S8A :: 3.52
P6V :: 1.39

Reported protein stability index ( V13W ) = 4.17

Reported protein stability index ( H18A ) = 3.34

Reported protein stability index ( S23I ) = 2.64

Reported protein stability index ( D10F ) = 2.42

Reported protein stability index ( I16C ) = 2.93

Reported protein stability index ( L15M ) = 2.88

Reported protein stability index ( D10A ) = 2.95
